B1: SNAP91 (parent)
chain: FAQPMMRPPFGAAAVPGTQLSPSP

variants of: B1; assay: protein stability index of a GFP-peptide fusion (GPS, HEK-293T) (PSI 1-6); higher = more stable; details: c terminus: a fixed tail appended;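 also: lentivirally expressed fusions sorted by FACS into six bins by GFP to DsRed ratio, PSI derived from sequencing read proportions per bin multiplied by bin number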
// f strictly below 3 in protein stability index; t otherwise

Take a look at these entries with their results.
MUTATION_KEY | CLASS_ASSIGNMENT
A2G | t
Q3T | t
F10Y | f

Quick check: does P8H have protein stability index greater than or equal to 3?
t

Also, L20S please.
t

What do you have for T18G ?
f

Now try F10N .
t

Can you check R7Y next?
f
